# subject_of_test: T1, human A-beta(1-40) peptide, monomeric (BAM) (human, biotin at the C-terminus in capture ELISA, SPR and TR-FRET; not biotinylated where coated directly (Example 7))
# T1 construct: synthetic peptide (Anaspec), TFA/HFIP treated to give monomer; also called monomeric A-beta
# test_description: TR-FRET competition, labelled ABII42D4
pIC50: −log10 of the molar value.
readout_label: pIC50

// pIC50 lookup, binder = ABII42D4 (VHH, also called ABIIPMP42D4) VHH: EVQLVESGGGLVLAGGSLRLSCVHSGPTFSTDTMGWFRQAPGKEREFVAAVTWNSGRTNYADSVKGRFTVSRDNTRNAAYLQMSGLKDEDTAVYYCTAHRLVVGGTSVGDWRYWGQGTQVTVSS , result: 7.33

For this binder ( ABII5D2 (VHH) VHH: EVQLVESGGGLVQAGGSLRLSCAASGRTFSSYAMGWVRQAPGKERELVATISQSGGLRSYADSVKGRFTISRDNAKNTVYLQMNSLTPGDTAVYYCAAQARATAWSPQRVDYWGQGTQVTVSS ), measured pIC50 is < 6.00

In plain terms, ABII42G10 (VHH) VHH: EVQLVESGGGLVQAGGSLRLSCLFSGRTFSTNGVGWFRQVPGKEREFVSAINWSGSKTNYAEPVKGRFTISRDNAKNTAYLQMNSLKPEDTAVYYCAAYRTSISRYEYAYWGQGTQVTVSS has a documented pIC50 of < 6.00

pIC50 for reference VHH 2G6 (VHH, from WO2006/40153) VHH: QVKLEESGGGLVQPGGSLRLSCAASGFTFSNYWMYWVRQAPGKGLEWVSTISPRAANTYYADSVKGRFTISRDNAKNTLYLQMNSLEPDDTALYYCAKSLRYRDRPQSSDFLFWRQGTQVTVSS is < 6.00
